test: The drug is tested on Coprococcus comes strain: ATCC27758 for biotransformation. The drug concentrations were measured before and after a 12-h incubation by liquid-chromatography-coupled mass spectrometry (LC–MS); assay type: ADME; parameters: dose 2 uM, timepoint 0 vs 12 hours; conditions: 2 µM
ATTRIBUTE_MEASURED: Bacterial Biotransformation

• CNNCc1ccc(C(=O)NC(C)C)cc1 = Compound NOT metabolized
• COC(=O)[C@H]1[C@H]2C[C@@H]3c4[nH]c5cc(OC)ccc5c4CCN3C[C@H]2C[C@@H](OC(=O)c2cc(OC)c(OC)c(OC)c2)[C@@H]1OC = Compound NOT metabolized
• CCN(CC)CCNC(=O)c1cc(S(C)(=O)=O)ccc1OC [TIAPRIDE] = Compound NOT metabolized
• OC(c1cc(C(F)(F)F)nc2c(C(F)(F)F)cccc12)C1CCCCN1 (stereo unspecified) = Compound NOT metabolized
• Nc1nc(N)nc(-c2cc(Cl)ccc2Cl)n1.O=C(O)/C=C\C(=O)O [IRSOGLADINE MALEATE] = Compound NOT metabolized
• COCCc1ccc(OCC(O)CNC(C)C)cc1.COCCc1ccc(OCC(O)CNC(C)C)cc1.O=C(O)C(O)C(O)C(=O)O (stereo unspecified) [METOPROLOL TARTRATE] = Compound NOT metabolized
• CC#CCn1c(N2CCC[C@@H](N)C2)nc2c1c(=O)n(Cc1nc(C)c3ccccc3n1)c(=O)n2C = Compound NOT metabolized
• CC#C[C@]1(O)CC[C@H]2[C@@H]3CCC4=CC(=O)CCC4=C3[C@@H](c3ccc(N(C)C)cc3)C[C@@]21C = Compound NOT metabolized
• C#C[C@]1(OC(C)=O)CC[C@H]2[C@@H]3CCC4=CC(=O)CC[C@@H]4[C@H]3CC[C@@]21C [NORETHINDRONE ACETATE] = Compound NOT metabolized
• C[C@@H](c1ncncc1F)[C@](O)(Cn1cncn1)c1ccc(F)cc1F = Compound NOT metabolized
• COC(=O)Nc1nc2ccc(C(=O)c3ccccc3)cc2[nH]1 = Compound NOT metabolized
• CC(C)NCC(O)COc1ccc(COCCOC(C)C)cc1.CC(C)NCC(O)COc1ccc(COCCOC(C)C)cc1.O=C(O)/C=C/C(=O)O (stereo unspecified) [BISOPROLOL FUMARATE] = Compound NOT metabolized
• CC(N)C12CC3CC(CC(C3)C1)C2 (stereo unspecified) = Compound NOT metabolized
• CN1CCC(=C2c3ccccc3CC(=O)c3sccc32)CC1.O=C(O)/C=C/C(=O)O [KETOTIFEN FUMARATE] = Compound NOT metabolized
• CCc1oc2ccccc2c1C(=O)c1cc(Br)c(O)c(Br)c1 = Compound NOT metabolized

Hello, the source for this data is ChEMBL document CHEMBL5303573, in case you need it.
